Tested on: P388 leukemia ip, CD2F1 mice, survival T/C
Test: NCI In Vivo Anticancer Drug Screen. Data for tumor model P388 Leukemia (intraperitoneal) in CD2F1 (CDF1) mice
Details: endpoint: median survival time; dose: 200.0 mg/kg/injection; schedule: Q01DX009 (ip); vehicle: saline; higher = longer survival
Toxic doses and inconclusive results are not listed.
assayReadout: T/C

Value sought for every listed molecule: T/C.
1. CC(N)CN1CC(C)N=C1c1ccncc1 (configuration not stated)
2. O=C1NC(CN2CCC(O)CC2)C(=O)NC1CN1CCC(O)CC1 (configuration not stated)

1: 99 % of control; 2: 97 % of control

====

System: P388 leukemia ip, CD2F1 mice, survival T/C
Assay: NCI In Vivo Anticancer Drug Screen. Data for tumor model P388 Leukemia (intraperitoneal) in CD2F1 (CDF1) mice
Settings: endpoint: median survival time; dose: 200.0 mg/kg/injection; schedule: Q04DX002 (ip); vehicle: saline with Tween-80; higher = longer survival
Toxic doses and inconclusive results are not listed.
Please go through the items and note down their T/C.

Cc1ccc(S(=O)(=O)S(=O)(=O)c2ccc(C)cc2)cc1 :: 99 % of control
COc1ccc(-c2n[nH]c(-c3ccc(OC)cc3)c2N=Nc2ccc(S(=O)(=O)Nc3nnc(C)s3)cc2)cc1 :: 103 % of control
CC(=O)OC1CC2(C)CCC3C(C)C(=O)OC3C2C(C)C1=O (stereo not given) :: 100 % of control
Cc1c2c(cc3c4ccccc4n(C)c13)C(=O)c1ccccc1C2=O :: 87 % of control
O=Cc1ccccc1-c1ccccc1C=O :: 103 % of control

Field: T/C. Fill in for each record below.
1. O=S(=O)(CS(=O)(=O)Oc1ccccc1)Oc1ccccc1
2. O=c1cc(CC(O)c2ccccc2)c2ccccc2[nH]1 (stereo not given)
3. CN(c1ccccc1)C1C2=C(OC(=O)C1(Cl)Cl)c1sc(-c3ccccc3)nc1CC2 (stereo not given)
4. CCC/C(=N\NC(N)=NC)c1ccc2c(c1)Cc1ccccc1-2
5. O=C(Nc1ccc2c(c1)Cc1cc(NC(=O)C34CC5CC(CC(C5)C3)C4)ccc1-2)C12CC3CC(CC(C3)C1)C2

1. 96 % of control
2. 94 % of control
3. 86 % of control
4. 104 % of control
5. 89 % of control

====

System: P388 leukemia ip, CD2F1 mice, survival T/C
Assay: NCI In Vivo Anticancer Drug Screen. Data for tumor model P388 Leukemia (intraperitoneal) in CD2F1 (CDF1) mice
Settings: endpoint: median survival time; dose: 400.0 mg/kg/injection; schedule: Q04DX003 (ip); vehicle: saline; higher = longer survival
Toxic doses and inconclusive results are not listed.
assayReadout: T/C

Illustrative cases are given below, each with its answer.
CC(C)(C)C(=O)Nc1ccccc1-c1ccccc1 :: 94 % of control
COc1ccc2ccc3c4c(c(=O)[nH]c3c2n1)CCC4 :: 105 % of control
O=C1C2CCCC1C(c1ccc(Cl)cc1)NC2c1ccc(Cl)cc1 (stereo not drawn) :: 96 % of control
CCN(CC)CCCNC(C)=O :: 95 % of control
COc1nc(Nc2ccc(/C=C/c3ccc(Nc4nc(OC)nc(N(CCO)CCO)n4)cc3S(=O)(=O)O)c(S(=O)(=O)O)c2)nc(N(CCO)CCO)n1 :: 103 % of control

# return T/C for each item in the list
1. NC(=O)NNC(=O)NNC(N)=O
2. CCOC(=O)CCN(CC)CC

1: 106 % of control; 2: 100 % of control

Hi team, please reply with T/C for each item in this list.
1. CC1=NN(C)C(=O)C1
2. COCCOCCOCCOCCOCCN
3. [Cl][Pd][Cl].[NH-]C(C(=O)O)c1ccccc1.[NH-]C(C(=O)O)c1ccccc1 (stereo not drawn)
4. Cc1ccn2cc(CC(=O)O)nc2n1
5. COc1ccc(C(CC(=O)O)CC(=O)N(CCCl)CCCl)cc1C (stereo not drawn)

["111 % of control", "104 % of control", "109 % of control", "105 % of control", "100 % of control"]

Give T/C for the following compound: O=C(O)C(Nc1ncnc2c1ncn2C1OC(CO)C(O)C1O)C(F)(F)C(=O)O (stereo not drawn)
99 % of control

====

Test system: P388 leukemia ip, CD2F1 mice, survival T/C
Test: NCI In Vivo Anticancer Drug Screen. Data for tumor model P388 Leukemia (intraperitoneal) in CD2F1 (CDF1) mice
Conditions: endpoint: median survival time; dose: 30.0 mg/kg/injection; schedule: Q01DX005 (ip); vehicle: saline with Tween-80; higher = longer survival
Toxic doses and inconclusive results are not listed.
Answer each item with its documented T/C.

COc1ccc2c(c1)OC(C)(C)C(c1ccccc1)=C2c1ccc2c(c1)NCCO2 :: 91 % of control
CC(O)CN=Cc1ccccc1[O-].CC(O)CN=Cc1ccccc1[O-].[Cu+2] (centres undefined) :: 94 % of control
Clc1nc(C(Cl)Cl)nc2ccccc12 :: 106 % of control
CSc1c2c([nH]c(=O)c1C#N)-c1ccccc1CC2 :: 89 % of control
NC(=S)N/N=C1/C(=O)N(c2ccc(Cl)cc2)C(=O)C1C(=O)Nc1ccc(Cl)cc1 (centres undefined) :: 94 % of control
C=CCSC(C)=O :: 98 % of control
COc1cccc2cc(-n3nnc4ccccc43)c(=O)oc12 :: 94 % of control
Cn1c(=S)sc2nc3ccccc3n2c1=S :: 117 % of control

Kindly consider the entry below.
Provide measured T/C value, entry: COc1cc(O)c2c(c1)C(=O)C1=C(C2=O)[C@@H](C)OC(C)C1 (some centres undefined)
96 % of control

====

Test system: P388 leukemia ip, CD2F1 mice, survival T/C
Assay: NCI In Vivo Anticancer Drug Screen. Data for tumor model P388 Leukemia (intraperitoneal) in CD2F1 (CDF1) mice
Details: endpoint: median survival time; dose: 60.0 mg/kg/injection; schedule: Q01DX005 (ip); vehicle: saline with Tween-80; higher = longer survival
Inconclusive results and toxic doses are left out.
assayReadout: T/C

The examples below pair each entry with its known result.
Cc1cccc(N2C(c3ccccc3)c3ccc(C)cc3NS2=O)c1 (stereo not drawn) :: 97 % of control
CC(C)c1nccn1Cc1ccc(Cl)cc1Cl :: 88 % of control
CCN(CC)c1ccc2cc(C(=O)c3cccs3)c(=O)oc2c1 :: 104 % of control
CCOC(=O)C1=C(C(=O)c2ccc(C)cc2)C(c2ccc(Cl)cc2Cl)C(C(=O)c2ccc(C)cc2)=C(C(=O)OCC)N1 :: 89 % of control
CC1C=CC(c2ccccc2)C2C(=O)OC(=O)C12 (stereo not drawn) :: 116 % of control

Return reported T/C values for all items listed beneath this line.
1. CC1(O)OC(COc2ccc(Cl)cc2)COC1O (stereo not drawn)
2. O=C(Nc1ccccc1)/C(Cl)=C1/Sc2ccccc2NC1=O
3. O=c1[nH]c2nc(SCc3ccccc3)n(Cc3ccccc3)c2c(=O)n1OS(=O)(=O)c1ccccc1
4. Cc1cc(C)[n+]([O-])c(C)c1
5. Oc1cc2c(cc1C(c1ccc3c(c1)OCO3)N1CCN(C(c3ccc4c(c3)OCO4)c3cc4c(cc3O)OCO4)CC1)OCO2 (stereo not drawn)
6. CCCCN1C(=O)C2C3CCC(O3)C2C1=O (stereo not drawn)
7. O=C(CO)CC(=O)CCC(=O)Nc1cccc([N+](=O)[O-])c1

1. 112 % of control
2. 104 % of control
3. 98 % of control
4. 101 % of control
5. 89 % of control
6. 100 % of control
7. 105 % of control

Report T/C for each item below.
1. CCc1cccc(CC)c1NC1=C(Cl)C(=O)c2ccccc2C1=O
2. CN(C)c1ccc2[nH]c3ccccc3c2c1
3. Cc1ccc(NC(=O)/C(Cl)=C(\Cl)C(=O)O)cc1C
4. CC(C)N(C(=O)c1cccc(C(=O)N(C(C)C)C(C)C)n1)C(C)C
5. O=C(Nc1ccc(S(=O)(=O)F)cc1)/C(=C/c1ccc([N+](=O)[O-])cc1)c1ccccc1
6. COc1nc2[nH]ccc2c(=O)[nH]1

1: 100 % of control; 2: 107 % of control; 3: 104 % of control; 4: 101 % of control; 5: 102 % of control; 6: 94 % of control

Could you report T/C for every entry in the following list?
1. N#CCCOCNC(=O)NCOCCC#N
2. CCOC(=O)CC(C)P(c1ccccc1)C(C)CC(=O)OCC (stereo not drawn)
3. O=C(CSCc1c(F)cccc1Cl)Nc1ccc(F)c(Cl)c1
4. CSc1c2c([nH]c(=O)c1C#N)-c1ccccc1CC2
5. CC(=O)C1C(=O)C(=O)N(c2ccccc2C)C1=O (stereo not drawn)
6. COc1ccc(C2(c3ccc(OC)cc3)ON(C(c3ccccc3)c3ccccc3)C2=O)cc1
7. Nc1ncnc2c1c(-c1ccccc1)cn2-c1ccccc1

96 % of control
98 % of control
97 % of control
91 % of control
103 % of control
95 % of control
103 % of control

Batch request: T/C for each of the following compounds.
1. COc1ccc(OC)c(C2SCC(=O)N2c2nncs2)c1 (stereo not drawn)
2. COc1ccc(C2COc3c(ccc(O)c3O)C2)cc1 (stereo not drawn)
3. COC(=O)c1cccc2c(N)c(N)cc(C(=O)OC)c12
4. O=C(O)c1c(Cl)c(Cl)c(Cl)c(Cl)c1-c1c2ccc(=O)cc-2oc2cc(O)ccc12
5. O=C(O)c1cc(N=C=S)ccc1-c1c2ccc(=O)cc-2oc2cc(O)ccc12

["104 % of control", "104 % of control", "100 % of control", "100 % of control", "114 % of control"]
